- system: human adenosine A2A receptor (Homo sapiens)
- Construct: expressed in transfected cells; host or cells: CHO cells, semliki forest virus expression system; washed membranes
- Sequence (P29274 whole entry): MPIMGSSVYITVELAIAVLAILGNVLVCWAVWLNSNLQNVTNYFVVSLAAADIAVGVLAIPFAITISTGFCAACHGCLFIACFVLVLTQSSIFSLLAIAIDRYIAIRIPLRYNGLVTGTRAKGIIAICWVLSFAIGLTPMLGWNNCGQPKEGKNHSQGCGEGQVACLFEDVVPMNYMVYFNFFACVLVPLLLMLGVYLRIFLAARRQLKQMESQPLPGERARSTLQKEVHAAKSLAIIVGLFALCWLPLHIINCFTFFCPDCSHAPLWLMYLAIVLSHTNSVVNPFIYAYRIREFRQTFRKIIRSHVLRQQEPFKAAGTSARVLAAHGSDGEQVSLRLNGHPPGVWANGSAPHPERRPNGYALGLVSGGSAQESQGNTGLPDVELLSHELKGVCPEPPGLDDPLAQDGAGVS
- protocol-notes: [3H]-SCH-58261 binding assay, human adenosine A2A receptor (CHO cell membranes, SPA)
- condition-context: [3H]-SCH-58261 displacement; list of examples 10-108; read-out: hA2a Ki
pKi: −log10 of the molar value.
outcome-measure: pKi

Example results:
Cc1ccc(-c2nc3c(N)cc(C(=O)N(C)CCc4ccccc4)cn3n2)o1 ... 6.95
Nc1cc(C(=O)N2CCCCC2)cn2nc(-c3ccccc3)nc12 ... 6.26
CCN(CCOC)C(=O)c1cc(N)c2nc(-c3ccc(C)o3)nn2c1 ... 6.98
CC1CCCN(C(=O)c2cc(N)c3nc(-c4ccco4)nn3c2)C1 (stereo not drawn) ... 6.88

a. Cc1ccc(-c2nc3c(N)cc(C(=O)N4CCSCC4)cn3n2)o1
b. CC(C)N(Cc1ccccc1)C(=O)c1cc(N)c2nc(-c3ccco3)nn2c1
c. CCN(CC)C(=O)C1CCCN(C(=O)c2cc(N)c3nc(-c4ccccc4)nn3c2)C1 (stereo not drawn)
d. CCCN(C)C(=O)c1cc(N)c2nc(-c3cccs3)nn2c1
Ask: Sequence the entries by pKi, beginning with the highest number. Please list each label once, in the requested order.
Result: a, b, d, c
(a: 6.85, b: 6.64, d: 6.36, c: 6.00)

* * *

- system: human adenosine A2A receptor (Homo sapiens)
- Construct: expressed in transfected cells; host or cells: CHO cells, semliki forest virus expression system; washed membranes
- protocol-notes: [3H]-SCH-58261 binding assay, human adenosine A2A receptor (CHO cell membranes, SPA)
- condition-context: [3H]-SCH-58261 displacement; list of examples 10-108; read-out: hA2a Ki
outcome-measure: Ki (nM)

Example results:
CC1CCCN(C(=O)c2cc(N)c3nc(-c4ccccc4)nn3c2)C1 (stereo not drawn) ... 385
NC(=O)[C@H]1CCCN1C(=O)c1cc(N)c2nc(-c3ccco3)nn2c1 ... 138

I. CN(C)C(=O)[C@@H]1CCCN1C(=O)c1cc(N)c2nc(-c3ccccc3)nn2c1
II. CC1CCCN1C(=O)c1cc(N)c2nc(-c3cccs3)nn2c1 (stereo not drawn)
Ask: Hi team, can someone confirm which has the larger Ki: I or II ? Thanks. Identify your pick by its label.
Result: I
(I: 420 nM, II: 233 nM)

1. CN(CCc1ccccc1)C(=O)c1cc(N)c2nc(-c3ccccn3)nn2c1
2. Nc1cc(C(=O)N2CCSCC2)cn2nc(-c3ccco3)nc12
Ask: Hi team, can someone confirm which has the larger Ki: 1 or 2 ? Thanks. Identify your pick by its label.
Result: 2
(2: 638 nM, 1: 387 nM)

* * *

Overview of reported Ki across a group of compounds:
- system: hA1 (Homo sapiens)
- Sequence (P30542 1-326): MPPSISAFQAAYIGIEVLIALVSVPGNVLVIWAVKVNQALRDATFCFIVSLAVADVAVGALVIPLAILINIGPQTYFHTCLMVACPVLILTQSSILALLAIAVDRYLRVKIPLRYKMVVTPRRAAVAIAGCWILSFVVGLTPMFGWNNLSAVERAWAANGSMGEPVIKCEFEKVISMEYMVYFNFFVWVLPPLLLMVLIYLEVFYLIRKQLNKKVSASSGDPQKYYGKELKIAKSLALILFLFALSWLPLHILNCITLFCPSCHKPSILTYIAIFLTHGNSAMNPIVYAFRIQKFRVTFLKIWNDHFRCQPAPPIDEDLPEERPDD
Quick note: give the figure in nM, leave out the unit.

hA1 (Homo sapiens) data for COCC1CCCN1C(=O)c1cc(N)c2nc(-c3ccco3)nn2c1 (stereo in doubt) ; its Ki: 4360

hA1 (Homo sapiens) data for Nc1cc(C(=O)N2CCCCC2)cn2nc(-c3ccco3)nc12 ; its Ki: 3440

This collection of values is drawn from patent US6689790B2.
